System: RPMI-8226
assay summary: NCI tumour cell line growth inhibition, 48 h
Activity calls are given as the source filed them. No stated cut-off is given here; in the data, active = GI50 up to about 1.1 µM and inactive = higher.
Please provide measured GI50 for the entries that follow.

Fill in the blank: the reported GI50 of "CC1(C)C(=NNC(=S)NN)C(C)(C)C1=NNC(=S)NN" is ____. > 100 µM (inactive)

For the molecule COC(=O)c1ccccc1CC(Cc1ccccc1)C(=O)OC (configuration not stated) , what GI50 is on record? 27.6 µM (inactive)

Give GI50 for each listed item.
1. CN1c2ccc(O)c(O)c2-c2cc(O)cc3c2C1CCC3 (configuration not stated)
2. O=C(N/N=C\c1cccc2c([N+](=O)[O-])cccc12)Nc1ccccc1
3. Nc1nc2sc3ccccc3c(=O)n2n1
4. Cc1cc(O)ccc1C1(c2ccc(F)cc2)OC(=O)c2ccccc21 (configuration not stated)
5. CS(=O)(=O)c1ccc(C2=C(c3ccccc3)C(=O)OC2)cc1
6. CN(C)C(=O)Oc1c(Br)cc(Br)cc1C(=O)OCc1ccccc1

1. 3.31 µM (inactive)
2. 14.7 µM (inactive)
3. > 100 µM (inactive)
4. 21.7 µM (inactive)
5. > 100 µM (inactive)
6. 19.5 µM (inactive)

Below are 5 molecules. Give each one its GI50.
1. CSc1ccc2c(c1)N(CCCN(C)C)c1ccccc1S2
2. c1ccc(NCn2cnc3ccccc32)cc1
3. CCCCNC(=O)c1cc(S(=O)(=O)n2ccnc2O)c(SC)cc1Cl
4. Cc1[nH]c(=O)nc(N(CCO)/N=C/c2ccccc2Cl)c1C(=O)Nc1cc(Cl)cc(Cl)c1
5. Cc1cc2c(C=O)n[nH]c2c(C#N)c1C

["12.2 µM (inactive)", "25.9 µM (inactive)", "> 100 µM (inactive)", "40.2 µM (inactive)", "> 100 µM (inactive)"]

Record GI50 per entry; entries follow.
1. O[C@H]1[C@H]2[C@H](O)CCCN2C[C@H]1O
2. c1ccc2c(OCCSCCCCCCCCCCSCCOc3cccc4ccccc34)cccc2c1
3. O=C(O)CCc1nc(-c2ccccc2)c(-c2ccccc2)o1

1: > 100 µM (inactive); 2: > 100 µM (inactive); 3: 74.8 µM (inactive)

I need GI50 for every entry listed below, if you could help.
1. CC(=O)O[C@H]1C(=O)N(c2cc3c4ccccc4ccc3c3ccccc23)[C@@H]1c1ccccc1
2. Cn1c(=O)c(C(=O)NC23CC4CC(CC(C4)C2)C3)c(O)c2ccccc21

["2.23 µM (inactive)", "> 100 µM (inactive)"]

* * *

Tested on: MOLT-4
assay summary: NCI tumour cell line growth inhibition, 48 h
Calls of active or inactive are those of the source. No stated cut-off is given here; in the data, active = GI50 up to about 1.1 µM and inactive = higher.
Pick from 1 (yes) for active, 0 (no) for inactive when you respond.

Some entries whose results are on file:
Per the assay record, what outcome was assigned to CCCCCCCCCCCCCC(=O)O[C@H]1CC[C@H](NC(=O)[C@H](OC)[C@H](O)[C@@H](O)[C@H](O)/C=C/C(C)C)C(=O)N(C)C1 [BENGAMIDE B] ? 1 (yes)

What was the test verdict on "Cc1cc(C)c2c(O)cc(-c3cccc(Cl)c3)nc2n1" ? 1 (yes)

---
Field: outcome | Entry: "CCCCC(=O)Oc1ccc2c(C)cc(=O)oc2c1" 0 (no)

Tell me the assay call for O=C(CC1(O)C(=O)Nc2ccc([N+](=O)[O-])cc21)c1ccncc1 (stereo unspecified) please. 0 (no)

Outcome? Fc1ccc2c(c1)SC1Oc3ccccc3-c3c1c-2nn3-c1ccccc1 (stereo unspecified) 0 (no)

Name the outcome recorded for "O=C(Nc1nc(C23CC4CC(CC(C4)C2)C3)cs1)c1c(O)c2ccccc2[nH]c1=O" in the assay. 0 (no)
